target: Programmed cell death protein 1/Programmed cell death 1 ligand 1 (Homo sapiens, UniProt Q15116+Q9NZQ7); test: Inhibition of Tag2-PD-1/Tag1-PDL-1 (unknown origin) interaction incubated for 15 mins by TR-FRET assay
Sequence (Q15116 whole entry): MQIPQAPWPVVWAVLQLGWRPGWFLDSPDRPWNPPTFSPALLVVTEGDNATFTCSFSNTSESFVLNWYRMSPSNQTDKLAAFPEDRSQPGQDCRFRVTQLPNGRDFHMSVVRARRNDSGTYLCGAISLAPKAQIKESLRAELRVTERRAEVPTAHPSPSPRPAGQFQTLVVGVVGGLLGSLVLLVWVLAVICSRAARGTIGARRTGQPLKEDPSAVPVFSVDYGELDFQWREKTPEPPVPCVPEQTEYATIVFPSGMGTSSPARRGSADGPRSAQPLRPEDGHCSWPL
Sequence (Q9NZQ7 whole entry): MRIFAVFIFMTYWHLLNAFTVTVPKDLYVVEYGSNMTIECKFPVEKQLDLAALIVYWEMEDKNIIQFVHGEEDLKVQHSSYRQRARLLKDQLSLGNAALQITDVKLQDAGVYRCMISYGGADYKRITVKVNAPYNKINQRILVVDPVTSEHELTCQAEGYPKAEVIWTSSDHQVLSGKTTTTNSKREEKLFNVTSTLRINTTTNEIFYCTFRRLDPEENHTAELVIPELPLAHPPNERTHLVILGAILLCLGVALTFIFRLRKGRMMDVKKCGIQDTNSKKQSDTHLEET
Measured pIC50 accompanies every entry in the list below.
The meaning of pIC50 here: minus log10 of the concentration in molar units.

O=C(O)[C@@H]1C[C@@H](O)CN1Cc1ccc2c(Nc3cccc(-c4ccc5c(c4)OCCO5)c3Cl)nsc2c1 | 7.75

// sample CN(CC(=O)O)Cc1ccc2c(Nc3cccc(-c4ccc5c(c4)OCCO5)c3Cl)nsc2c1 , its pIC50 was 6.83

// sample O=C(O)[C@H](CO)NCc1ccc2c(Nc3cccc(-c4ccc5c(c4)OCCO5)c3F)nsc2c1 , its pIC50 was 6.31

// sample O=C(O)[C@@H](CO)NCc1ccc2c(Nc3cccc(-c4ccc5c(c4)OCCO5)c3Cl)nsc2c1 , its pIC50 was 7.97

---

target: Programmed cell death protein 1/Programmed cell death 1 ligand 1 (Homo sapiens, UniProt Q15116+Q9NZQ7); assay: Inhibition of Tag2-PD-1/Tag1-PDL-1 (unknown origin) interaction incubated for 15 mins by TR-FRET assay
reported.endpoint: IC50 (nM)
Hi! Could you send only the number? It should be in nM, unit omitted.

Solved cases (6 shown):
COC[C@H](NCc1ccc2c(Nc3cccc(-c4ccc5c(c4)OCCO5)c3Cl)nsc2c1)C(=O)O | 79.1
CC1(O)CCN(Cc2ccc3c(Nc4cccc(-c5ccc6c(c5)OCCO6)c4Cl)nsc3c2)C1 (racemic) | 98.7
O=C(O)[C@H](CO)NCc1ccc2c(Nc3cccc(-c4ccccc4)c3Cl)nsc2c1 | 40.3
O=C(O)C1CCN1Cc1ccc2c(Nc3cccc(-c4ccc5c(c4)OCCO5)c3Cl)nsc2c1 (racemic) | 131
C[C@@H](NCc1ccc2c(Nc3cccc(-c4ccc5c(c4)OCCO5)c3Cl)nsc2c1)C(=O)O | 43.4
O[C@H]1CCN(Cc2ccc3c(Nc4cccc(-c5ccc6c(c5)OCCO6)c4Cl)nsc3c2)C1 | 109

// sample OC1CCN(Cc2ccc3snc(Nc4cccc(-c5ccc6c(c5)OCCO6)c4Cl)c3c2)CC1 , its IC50 was 854

// sample OCC(CO)NCc1ccc2c(Nc3cccc(-c4ccc5c(c4)OCCO5)c3Cl)nsc2c1 , its IC50 was 58.3

---

molecular target: UniProtKB Q9NZQ7; assay: Inhibition of PDL1 (unknown origin)
Sequence (Q9NZQ7 whole entry): as above
Measured IC50 accompanies every entry in the list below.

Solved cases (3 shown):
N#Cc1c(NC(=O)c2nc3c(s2)CNCC3)cccc1-c1ccc2c(c1)OCCO2 | < 100 nM
C[C@@H](O)[C@H](NCc1cc(Cl)c(OCc2cccc(-c3ccccc3)c2Br)cc1OCC1CC1)C(=O)O | 10.2 nM
Cc1cc(C(=O)Nc2cccc(-c3ccc4c(c3)OCCO4)c2C)ncc1CN1CCCC[C@H]1C(=O)O | < 10 nM

// sample N#Cc1cncc(COc2cc(OC3CCc4c(-c5ccccc5)cccc43)c(Cl)cc2CN[C@@H](CO)C(=O)O)c1 (some centres undefined) , its IC50 was < 100 nM

---

target: Programmed cell death protein 1/Programmed cell death 1 ligand 1 (Homo sapiens, UniProt Q15116+Q9NZQ7); experiment: Inhibition of Tag2-PD-1/Tag1-PDL-1 (unknown origin) interaction incubated for 15 mins by TR-FRET assay; type: protein-complex assay
Measured log10 IC50 accompanies every entry in the list below.
Values are log10 of IC50 in µM.

Solved cases (6 shown):
O=C(O)C1CN(Cc2ccc3c(Nc4cccc(-c5ccc6c(c5)OCCO6)c4Cl)nsc3c2)C1 | -1.14
O=C(O)C1CCN(Cc2ccc3c(Nc4cccc(-c5ccc6c(c5)OCCO6)c4Cl)nsc3c2)CC1 | -1.22
O=C(O)C1CCCN(Cc2ccc3c(Nc4cccc(-c5ccc6c(c5)OCCO6)c4Cl)nsc3c2)C1 (racemic) | -0.29
OC1CCN(Cc2ccc3snc(Nc4cccc(-c5ccc6c(c5)OCCO6)c4Cl)c3c2)C1 (racemic) | -0.60
O=C(O)C1CCN(Cc2ccc3c(Nc4cccc(-c5ccc6c(c5)OCCO6)c4Cl)nsc3c2)C1 (racemic) | -1.13
O=C(O)[C@H](CO)NCc1ccc2c(Nc3cccc(-c4ccc5c(c4)OCO5)c3Cl)nsc2c1 | -1.46

// below: log10 IC50 requested for another compound
// sample C[C@H](NCc1ccc2c(Nc3cccc(-c4ccc5c(c4)OCCO5)c3Cl)nsc2c1)C(=O)O , its log10 IC50 was -1.35

Where do these numbers come from? They come from ChEMBL document CHEMBL4814029.
